The reported measurements were obtained from patent US9266930.

- system_name: T1, HLA-DR5w12 (DRB1*1201) (human)
- T1 chain 1: not shown
- T1 chain 2: not shown
Reported binding affinity ratio (IC50 of standard peptide / IC50 of test peptide) by item:
readout_label: binding affinity ratio (IC50 of standard peptide / IC50 of test peptide)

# binder, value_measured
rows = [
    ("ILSVFFLALFFIIFN (modifications not checked) [… (Pf EXP 3)]", 0.0008),
    ("VFFLALFFIIFNKES (modifications not checked) [… (Pf EXP 6)]", 0.0002),
    ("VSTVLLGGVGLVLYN (modifications not checked) [… (Pf EXP 88)]", 0.0011),
    ("TVLLGGVGLVLYNTE (modifications not checked) [… (Pf EXP 90)]", 0.0004),
]
